assay: The drug is tested on WLS-010 corresponding to human gut metagenome with ENA study accession number: PRJEB37062 and ENA sample accession number: ERS12561743 for biotransformation under anaerobic condition. The drug concentrations were measured over 9 timepoints collected between 0 and 24 hours of incubation by liquid-chromatography-coupled mass spectrometry (LC–MS); details: 2 µM; also: call rule not given here
Attribute measured: Bacterial Biotransformation

[
  {
    "Compound": "Nc1nc(N)nc(-c2cc(Cl)ccc2Cl)n1.O=C(O)/C=C\\C(=O)O [IRSOGLADINE MALEATE]",
    "Bacterial Biotransformation": "Compound NOT metabolized"
  },
  {
    "Compound": "CN(C)CCc1c[nH]c2ccc(CS(=O)(=O)N3CCCC3)cc12",
    "Bacterial Biotransformation": "Compound NOT metabolized"
  },
  {
    "Compound": "c1ccc2[nH]c(-c3cscn3)nc2c1",
    "Bacterial Biotransformation": "Compound NOT metabolized"
  },
  {
    "Compound": "CC[C@H](C)C(=O)O[C@H]1CCC=C2C=C[C@H](C)[C@H](CC[C@@H]3C[C@@H](O)CC(=O)O3)[C@H]21",
    "Bacterial Biotransformation": "Compound metabolized"
  },
  {
    "Compound": "CC(=O)O[C@]1(C(C)=O)CC[C@H]2[C@@H]3C=C(C)C4=CC(=O)CC[C@]4(C)[C@H]3CC[C@@]21C [MEGESTROL ACETATE]",
    "Bacterial Biotransformation": "Compound metabolized"
  },
  {
    "Compound": "COc1ccccc1OCCNCC(O)COc1cccc2[nH]c3ccccc3c12 (stereo not drawn)",
    "Bacterial Biotransformation": "Compound metabolized"
  },
  {
    "Compound": "N[C@@H](Cc1ccc(N(CCCl)CCCl)cc1)C(=O)O",
    "Bacterial Biotransformation": "Compound metabolized"
  }
]

// moving on: another record for Bacterial Biotransformation
Look up Bacterial Biotransformation for this compound: C=C[C@H]1CN2CC[C@H]1C[C@H]2[C@H](O)c1ccnc2ccc(OC)cc12.C=C[C@H]1CN2CC[C@H]1C[C@H]2[C@H](O)c1ccnc2ccc(OC)cc12.O.O.O=S(=O)(O)O [QUININE SULFATE] Compound NOT metabolized

Data origin: ChEMBL document CHEMBL5724914
